subject.of.test: full-length glucocorticoid (GR) protein (Homo sapiens)
Construct: purchased Invitrogen
Sequence (P04150 whole entry): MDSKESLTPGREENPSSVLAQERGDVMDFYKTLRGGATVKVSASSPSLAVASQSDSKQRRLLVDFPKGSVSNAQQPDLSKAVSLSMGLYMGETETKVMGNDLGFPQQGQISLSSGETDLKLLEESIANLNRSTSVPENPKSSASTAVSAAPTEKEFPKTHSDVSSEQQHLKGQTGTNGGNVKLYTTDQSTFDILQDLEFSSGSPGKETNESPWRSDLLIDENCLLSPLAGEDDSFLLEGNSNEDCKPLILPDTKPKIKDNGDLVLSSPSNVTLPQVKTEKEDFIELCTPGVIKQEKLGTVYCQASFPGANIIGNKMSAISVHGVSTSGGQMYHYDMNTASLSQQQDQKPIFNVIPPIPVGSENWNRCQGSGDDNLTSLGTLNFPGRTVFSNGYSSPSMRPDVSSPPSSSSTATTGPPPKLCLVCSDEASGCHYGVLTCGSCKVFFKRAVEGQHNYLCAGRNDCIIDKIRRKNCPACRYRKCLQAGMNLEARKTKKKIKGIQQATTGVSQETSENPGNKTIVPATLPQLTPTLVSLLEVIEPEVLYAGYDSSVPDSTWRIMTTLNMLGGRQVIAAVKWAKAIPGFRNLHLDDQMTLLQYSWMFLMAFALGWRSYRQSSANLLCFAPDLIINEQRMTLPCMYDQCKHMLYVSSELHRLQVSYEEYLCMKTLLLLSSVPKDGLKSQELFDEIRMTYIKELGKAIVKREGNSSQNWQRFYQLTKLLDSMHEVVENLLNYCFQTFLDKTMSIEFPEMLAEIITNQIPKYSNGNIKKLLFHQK
procedure.text: Glucocorticoid receptor fluorescence polarization ligand binding (GRFP) assay
applied.conditions: additional results (footnote a)
recorded.metric: IC50 (nM)
Give bare numbers, in nM.

Q: Could you tell me which IC50 is on file for Cc1ncccc1NC(=O)c1ccc2c(c1)CC[C@@H]1C[C@@](OP(=O)(O)O)(C(F)(F)F)CC[C@@]21Cc1ccccc1 [Example 2] ?
Result: 42

====

Tested on: Mouse Collagen-Induced Arthritis (mCIA)
procedure.text: Therapeutic mouse collagen-induced arthritis (mCIA) model
Assay type: in vivo, Male DBA/J mice
applied.conditions: Mus musculus; mice, dosing day 34 through day 49; read-out: Therapeutic mCIA (ED80 dose)
Give ED80 for every item shown.

Solved cases (7 shown):
substance.smiles	subject.of.test	ED80
Cc1ncccc1NC(=O)c1ccc2c(c1)C(=O)C[C@@H]1C[C@@](O)(C(F)(F)F)CC[C@@]21Cc1ccccc1	Mouse Collagen-Induced Arthritis (mCIA)	2.6 mg/kg
Cc1c(NC(=O)c2ccc3c(c2)CC[C@@H]2C[C@@](O)(C(F)(F)F)CC[C@@]32Cc2ccccc2)ccc[n+]1[O-]	Mouse Collagen-Induced Arthritis (mCIA)	3 mg/kg
Cc1ncccc1NC(=O)c1ccc2c(c1)CC[C@@H]1C[C@@](O)(CCC(F)(F)F)CC[C@@]21Cc1ccccc1	Mouse Collagen-Induced Arthritis (mCIA)	> 10 mg/kg
Cc1cnc(NC(=O)c2ccc3c(c2)CC[C@@H]2C[C@@](O)(C(F)(F)F)CC[C@@]32Cc2ccccc2)c(C)n1	Mouse Collagen-Induced Arthritis (mCIA)	> 10 mg/kg
Cc1ncccc1NC(=O)c1ccc2c(c1)[C@H](O)C[C@@H]1C[C@@](O)(C(F)(F)F)CC[C@@]21Cc1ccccc1	Mouse Collagen-Induced Arthritis (mCIA)	> 10 mg/kg
Cc1ncccc1NC(=O)c1ccc2c(c1)C=C[C@@H]1C[C@@](O)(C(F)(F)F)CC[C@@]21Cc1ccccc1	Mouse Collagen-Induced Arthritis (mCIA)	> 20 mg/kg
Cc1ncccc1NC(=O)c1ccc2c(c1)CC[C@@H]1C[C@@](O)(C(F)(F)F)CC[C@@]21Cc1ccccc1	Mouse Collagen-Induced Arthritis (mCIA)	< 2 mg/kg

Now for another entry.
Q: Fill in the recorded ED80 for this compound, with Mouse Collagen-Induced Arthritis (mCIA) as test system: "Cc1ncc(NC(=O)c2ccc3c(c2)CC[C@@H]2C[C@@](O)(CCC(F)(F)F)CC[C@@]32Cc2ccccc2)c(C)n1"
Result: > 20 mg/kg
